assayed.target: Gal(b1-4)GlcNAc(b1-3)Gal(b1-4)GlcNAc(b1-3)[Gal(b1-4)GlcNAc(b1-3)Gal(b1-4)GlcNAc(b1-6)]GalNAc
assay.summary: glycan array binding signal (z-score within array); higher = stronger binding
assay.context: glycan notation: IUPAC condensed, linker removed
Only a selection was taken, and the strongest signals are over-represented in it overall.
measured.endpoint: glycan array binding signal (z-score)
Answers are plain numbers.

Below, each entry is followed by its recorded glycan array binding signal (z-score) result.
>>> assay_value("Epa19 (Candida glabrata) (protein) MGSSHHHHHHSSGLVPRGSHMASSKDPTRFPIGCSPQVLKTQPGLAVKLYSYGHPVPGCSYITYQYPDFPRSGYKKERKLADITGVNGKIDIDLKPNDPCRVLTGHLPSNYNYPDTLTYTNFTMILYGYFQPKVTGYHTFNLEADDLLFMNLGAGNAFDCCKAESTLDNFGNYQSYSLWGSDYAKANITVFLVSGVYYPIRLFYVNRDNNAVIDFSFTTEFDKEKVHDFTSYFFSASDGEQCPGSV")
1.4
>>> assay_value("Aap arpt (Staphylococcus epidermidis) (protein) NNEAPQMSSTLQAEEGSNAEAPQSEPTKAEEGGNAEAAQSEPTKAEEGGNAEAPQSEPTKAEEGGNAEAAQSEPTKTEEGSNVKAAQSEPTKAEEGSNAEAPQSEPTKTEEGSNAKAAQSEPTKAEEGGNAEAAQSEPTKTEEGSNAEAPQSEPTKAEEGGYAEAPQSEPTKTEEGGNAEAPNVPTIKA")
2.68

Fill in glycan array binding signal (z-score) for each of the 4 binders listed.
1. AFCNVH (Aspergillus fumigatus) (protein) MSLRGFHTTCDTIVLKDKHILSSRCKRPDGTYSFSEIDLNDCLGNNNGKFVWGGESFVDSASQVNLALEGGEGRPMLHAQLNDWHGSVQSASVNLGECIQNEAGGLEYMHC
2. CBM13 2a (Mycobacterium tuberculosum), P64849 (protein) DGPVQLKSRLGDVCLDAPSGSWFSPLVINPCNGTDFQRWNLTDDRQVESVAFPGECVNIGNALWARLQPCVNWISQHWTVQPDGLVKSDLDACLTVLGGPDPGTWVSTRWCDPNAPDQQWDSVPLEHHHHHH
3. Epa21 (Candida glabrata) (protein) MGSSHHHHHHSSGLVPRGSHMASTPNIESHPQGCSPVDTSGIKPGLKMDLYRFPITPPGTGCWSWDWLTVTPDFPRSGYWKWPKIAEVDGVVGPLHLDSGHPTCDPLTSVLPHGFNYLQSITTTNFTMVLHGYFVPKQSGKYTFEFKADDALLLNLGAGNAFSCCDYNNSQYNQGEYLAYAIWSKNNQTATLYLEKGIYYPIRVFYHNRCCGAYMDVVYYFNDSPIPNRDFSGLLFSIPDSDSCDANI
4. Pbx1CASH domain (Cryptococcus neoformans) (protein) MDETKPLWGNPRADGISLACKDSIVERNVVYDATDGAIVLFGSAGSTVKNNHVYARTRVILGGINLVDYEPWDGDYTNVKVHHNHLYALGRYFKVGIVIGPASWSDDTESVVHSASVTDNEFSGGYWGYGIVVASAKNFEVLRNKVIWDGEQGVARFSGVPGS

1. -0.168
2. 4.69
3. 1.89
4. 4.67
